molecular target: LSD1_(172-833), lysine-specific demethylase 1 (human, UniProt O60341-1 172-833); test: SPR; LSD1 immobilised by amine coupling on CM5 (12 000-15 000 RU), peptides injected; TBS-T (25 mM Tris, 150 mM HCl as printed, 0.05% Tween-20, 1 mM DTT, pH 8.0), 15 °C; 1:1 Langmuir model or steady state; highest tested concentration 200 μM; conditions: both partners purified
Ends that are not written are not given here.
Reported pKd is given for each of the following binders.
// scale note: pKd = -log10(conc_M); give the bare number

Some solved cases for reference:
Ac-RTMQTARKSTGGKAPRKQLA [H3_(2-21) K4M (peptide 7)] = 4.35
ARTMQTARKSTGG [H3_(1-13) K4M (peptide 3)] = 4.44

Now consider the entry below.
Task: Request the reported pKd associated with ARTMQTARKSTGGKA [H3_(1-15) K4M (peptide 2)]
Result: 5.30
